target: T1, Histidine-tagged human CD3e protein (human, UniProt P07766 23-126); assay: SPR (Biacore), human CD3e
T1 construct: also called hCD3e-His; not shown: His tag
T1 sequence (P07766 23-126 limits assumed): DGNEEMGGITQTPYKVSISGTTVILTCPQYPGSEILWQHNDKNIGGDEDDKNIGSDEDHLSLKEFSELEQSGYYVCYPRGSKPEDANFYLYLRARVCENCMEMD
RECORDED METRIC: koff (s⁻¹)
Just the number in s⁻¹, nothing appended.

# koff of 1B1-H3K1-IgG1-LALA (antibody, V domains shown, Humanized; human IgG1 with LALA mutations; also called H3K1 (humanized 1B1)) VH: QVQLVQSGAEVKKPGASVKLSCKASGYTFTSYWMHWVRQRHGQGLEWIGNIYPDSGTTNYGEKFKTRVTLTVDTSTSTAYMELSSLRSEDTAVYYCTRDTSGQYYFDYWGQGTLVTVSS VL: DIVMTQSPDSLAVSAGERATMNCKSSQSLLNSRTRKNYLAWYQHKPGQSPKLLIYWASTRESGVPDRFSGSGSGTDFTLTISSLQAEDVAVYYCVQSFSLRAFGGGTKVEIK = 0.000914
